- ASSAY_NAME: Drug distribution in rat tissues
- Assay type: in vivo
- EXPERIMENTAL_CONDITIONS: lungs, read-out: concentration in lungs relative to blood plasma
TEST_READOUT: Kp

[ask] I have this compound here, CS(=O)(=O)O.Cc1ccc(C(=O)Nc2ccc(CN3CCN(C)CC3)c(C(F)(F)F)c2)cc1C#Cc1nnc2ccccn12 [methanesulfonic acid salt] , and I need its recorded Kp.
[reply] ~71

* * *

- ASSAY_NAME: in vivo
- EXPERIMENTAL_CONDITIONS: rat, in vivo; oral, rats, 5 mg/kg
TEST_READOUT: AUC (µg·h/mL)
Dear colleague, please return just the value in µg·h/mL, with no unit written.

[ask] I have this molecule here, CS(=O)(=O)O.Cc1ccc(C(=O)Nc2ccc(CN3CCN(C)CC3)c(C(F)(F)F)c2)cc1C#Cc1nnc2ccccn12 [methanesulfonic acid salt] , and I need its recorded AUC.
[reply] 0.43

* * *

- EXPERIMENTAL_CONDITIONS: solid in water, equilibrium solubility test
TEST_READOUT: Crystallinity in 24 h

>>> measured_result("Cc1ccc(C(=O)Nc2ccc(CN3CCN(C)CC3)c(C(F)(F)F)c2)cc1C#Cc1nnc2ccccn12.Cc1ccc(S(=O)(=O)O)cc1")
"Cryst."
>>> measured_result("Cc1ccc(C(=O)Nc2ccc(CN3CCN(C)CC3)c(C(F)(F)F)c2)cc1C#Cc1nnc2ccccn12.O=C(O)/C=C/C(=O)O")
"Cryst."
>>> measured_result("Cc1ccc(C(=O)Nc2ccc(CN3CCN(C)CC3)c(C(F)(F)F)c2)cc1C#Cc1nnc2ccccn12 [free base]")
"Cryst."

* * *

- ASSAY_NAME: Solubility of the free base in various solvents
- Assay type: physicochemical
- EXPERIMENTAL_CONDITIONS: thermodynamic from solid; Water; 4.6 mg in 4.0 mL; 50 °C
TEST_READOUT: solubility

[ask] I have this compound here, Cc1ccc(C(=O)Nc2ccc(CN3CCN(C)CC3)c(C(F)(F)F)c2)cc1C#Cc1nnc2ccccn12 [free base] , and I need its recorded solubility.
[reply] < 800 µg/mL

* * *

- ASSAY_NAME: Solubility of the free base in various solvents
- Type: physicochemical
- EXPERIMENTAL_CONDITIONS: organic solvent or mixture, thermodynamic from solid; N-methylpyrrolidone; 3.7 mg in 0.1 mL; RT
TEST_READOUT: solubility

[ask] I have this molecule here, Cc1ccc(C(=O)Nc2ccc(CN3CCN(C)CC3)c(C(F)(F)F)c2)cc1C#Cc1nnc2ccccn12 [free base] , and I need its recorded solubility.
[reply] > 800 µg/mL

* * *

- TARGET_UNDER_TEST: Bcr-Abl (F317I) (Homo sapiens, UniProt P00519, F317I, form not given)
- Sequence (P00519 242-493 F317I limits assumed, form open): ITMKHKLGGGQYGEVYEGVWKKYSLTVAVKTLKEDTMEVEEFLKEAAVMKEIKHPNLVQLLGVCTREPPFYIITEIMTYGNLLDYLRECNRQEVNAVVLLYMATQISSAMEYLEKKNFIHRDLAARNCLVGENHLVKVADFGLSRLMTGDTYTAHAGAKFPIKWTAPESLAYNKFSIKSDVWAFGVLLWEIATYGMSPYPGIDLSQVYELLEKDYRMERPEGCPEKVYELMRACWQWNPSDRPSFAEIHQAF
- ASSAY_NAME: Bcr-Abl tyrosine kinase enzyme activity
TEST_READOUT: IC50 (nM)
Dear colleague, please return just the value in nM, with no unit written.

[ask] I have this compound here, CS(=O)(=O)O.Cc1ccc(C(=O)Nc2ccc(CN3CCN(C)CC3)c(C(F)(F)F)c2)cc1C#Cc1nnc2ccccn12 [methanesulfonic acid salt] , and I need its recorded IC50.
[reply] 2

* * *

- ASSAY_NAME: Solubility of the free base in various solvents
- Format: physicochemical
- EXPERIMENTAL_CONDITIONS: organic solvent or mixture, thermodynamic from solid; Acetone; 3.4 mg in 0.3 mL; 50 °C
TEST_READOUT: solubility

[ask] I have this compound here, Cc1ccc(C(=O)Nc2ccc(CN3CCN(C)CC3)c(C(F)(F)F)c2)cc1C#Cc1nnc2ccccn12 [free base] , and I need its recorded solubility.
[reply] > 800 µg/mL

* * *

- ASSAY_NAME: Stability, 7 days at T = 60° C.
- Assay type: physicochemical
- EXPERIMENTAL_CONDITIONS: before storage
Known Relative peak area, initial of a selection of compounds
Dear colleague, please return just the value in %, with no unit written.

// below: answered compounds
>>> measured_result("Cc1ccc(C(=O)Nc2ccc(CN3CCN(C)CC3)c(C(F)(F)F)c2)cc1C#Cc1nnc2ccccn12.O=C(O)/C=C/C(=O)O")
99.8
>>> measured_result("Cc1ccc(C(=O)Nc2ccc(CN3CCN(C)CC3)c(C(F)(F)F)c2)cc1C#Cc1nnc2ccccn12 [free base]")
99.7
>>> measured_result("Cc1ccc(C(=O)Nc2ccc(CN3CCN(C)CC3)c(C(F)(F)F)c2)cc1C#Cc1nnc2ccccn12.Cl")
99.9
>>> measured_result("CS(=O)(=O)O.Cc1ccc(C(=O)Nc2ccc(CN3CCN(C)CC3)c(C(F)(F)F)c2)cc1C#Cc1nnc2ccccn12 [methanesulfonic acid salt]")
99.7

Let's switch to this compound now.
[ask] I have this compound here, Cc1ccc(C(=O)Nc2ccc(CN3CCN(C)CC3)c(C(F)(F)F)c2)cc1C#Cc1nnc2ccccn12.Cc1ccc(S(=O)(=O)O)cc1 , and I need its recorded Relative peak area, initial.
[reply] 99.8
